TGT: UniProtKB P10275
Sequence (P10275 whole entry): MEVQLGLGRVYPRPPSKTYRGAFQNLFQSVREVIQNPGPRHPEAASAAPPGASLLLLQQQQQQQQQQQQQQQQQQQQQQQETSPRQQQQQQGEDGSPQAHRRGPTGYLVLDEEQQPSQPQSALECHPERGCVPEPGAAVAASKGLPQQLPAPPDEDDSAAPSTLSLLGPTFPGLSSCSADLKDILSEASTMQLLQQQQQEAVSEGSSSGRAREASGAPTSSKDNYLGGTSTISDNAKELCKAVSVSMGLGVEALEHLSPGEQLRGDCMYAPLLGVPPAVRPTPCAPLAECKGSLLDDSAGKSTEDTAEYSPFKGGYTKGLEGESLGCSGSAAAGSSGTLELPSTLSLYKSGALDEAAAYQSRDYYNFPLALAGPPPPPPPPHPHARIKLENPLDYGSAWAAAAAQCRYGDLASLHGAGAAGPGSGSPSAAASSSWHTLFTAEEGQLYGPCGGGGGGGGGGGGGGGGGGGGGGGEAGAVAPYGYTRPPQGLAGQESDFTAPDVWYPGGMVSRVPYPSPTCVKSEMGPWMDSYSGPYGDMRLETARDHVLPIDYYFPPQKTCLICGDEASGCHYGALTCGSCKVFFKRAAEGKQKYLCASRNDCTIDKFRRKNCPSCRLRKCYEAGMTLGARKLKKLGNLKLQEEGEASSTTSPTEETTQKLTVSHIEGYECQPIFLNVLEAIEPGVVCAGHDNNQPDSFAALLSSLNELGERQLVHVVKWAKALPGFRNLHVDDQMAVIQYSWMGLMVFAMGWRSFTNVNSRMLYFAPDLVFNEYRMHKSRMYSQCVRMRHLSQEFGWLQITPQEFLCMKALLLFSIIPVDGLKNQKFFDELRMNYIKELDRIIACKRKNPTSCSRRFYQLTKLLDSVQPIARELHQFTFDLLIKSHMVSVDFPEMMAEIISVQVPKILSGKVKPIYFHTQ
PROCEDURE_SUMMARY: Inhibition of androgen receptor-mediated cellular downregulation in human LNCAP cells assessed as decrease in nuclear receptor level after 20 to 22 hrs by laser-scanning fluorescence microplate cytometeric analysis
Type: cell-based
Hi! Could you tag entries with IC50 below 2000 nM as Y, and those at or above as N? Much appreciated.

>  <COMPOUND_STRING>
N#Cc1ccc(CN2CCN(c3ccc4nnc(C(F)(F)F)n4n3)CC2)cc1

>  <CAT>
Y

$$$$
>  <COMPOUND_STRING>
CC(=O)N1CCN(CCOc2ccc(C3CCN(C4=Nn5c(nnc5C(F)(F)F)CC4)CC3)cc2)CC1

>  <CAT>
Y

$$$$
>  <COMPOUND_STRING>
CC(=O)N1CCN(CCOc2ccc(C3CCN(c4ccc5nnc(C(F)(F)F)n5n4)CC3)cc2)CC1

>  <CAT>
Y

$$$$
>  <COMPOUND_STRING>
Fc1cccc(CN2CCN(c3ccc4nnc(C(F)(F)F)n4n3)CC2)c1F

>  <CAT>
N

$$$$
>  <COMPOUND_STRING>
Fc1ccc(CN2CCN(C3=Nn4c(nnc4C(F)(F)F)CC3)CC2)cc1

>  <CAT>
N

$$$$
>  <COMPOUND_STRING>
OC1(c2cccnc2)CCN(c2ccc3nnc(C(F)(F)F)n3n2)CC1

>  <CAT>
N

$$$$

Is it true that IC50 reported for "Cn1nccc1CCOc1ccc(C2CCN(c3ccc4nnc(C(F)(F)F)n4n3)CC2)cc1" is less than 2000 nM?
Y
